mean rank binding to CCL21 values by entry
- Tested Target: UniProt:O00585
- Sequence (O00585 24-134, species assumed): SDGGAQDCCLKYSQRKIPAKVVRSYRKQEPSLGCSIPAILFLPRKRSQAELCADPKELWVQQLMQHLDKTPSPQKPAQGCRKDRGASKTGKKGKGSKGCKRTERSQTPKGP
- Assay Info: Chemokine glycan microarray binding assay
- Details: maximum RFU set as 100% binding, average across 2 glycan concentrations and 3 chemokine dilutions (n=6)
Could you give me the number in %? Just the number is fine.

Compound	Tested Target	Unit Of Measure	Observed
NCCCO[C@@H]1O[C@@H](C(=O)O)[C@@H](O[C@H]2O[C@H](COS(=O)(=O)O)[C@@H](O[C@@H]3O[C@@H](C(=O)O)[C@@H](O[C@H]4O[C@H](COS(=O)(=O)O)[C@@H](O)[C@H](OS(=O)(=O)O)[C@H]4N)[C@H](O)[C@H]3O)[C@H](OS(=O)(=O)O)[C@H]2N)[C@H](O)[C@H]1O [Example 17]	UniProt:O00585	%	73

Please fill in: mean rank binding to CCL21 reported for NCCOCCO[C@@H]1O[C@@H](C(=O)O)[C@@H](O[C@@H]2O[C@@H](C(=O)O)[C@@H](OS(=O)(=O)O)[C@H](O)[C@H]2O)[C@H](O)[C@H]1O [Example 5] = 62

----------
- Tested Target: CXCL8 (Homo sapiens, UniProt P10145)
- Sequence (P10145 21-99, species assumed): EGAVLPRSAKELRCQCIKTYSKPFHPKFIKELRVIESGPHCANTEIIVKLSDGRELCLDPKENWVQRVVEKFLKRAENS
- Assay Info: Chemokine glycan microarray binding assay
- Details: maximum RFU set as 100% binding, average across 2 glycan concentrations and 3 chemokine dilutions (n=6)
The molecules listed here are annotated with their mean rank binding to CXCL8.
Give just the numeric value; % need not be written.

Molecule	Tested Target	mean rank binding to CXCL8 (%)
NCCCO[C@@H]1O[C@@H](C(=O)O)[C@@H](O[C@H]2O[C@H](CO)[C@@H](O[C@@H]3O[C@@H](C(=O)O)[C@@H](O[C@H]4O[C@H](CO)[C@@H](O)[C@H](OS(=O)(=O)O)[C@H]4N)[C@H](O)[C@H]3OS(=O)(=O)O)[C@H](OS(=O)(=O)O)[C@H]2N)[C@H](O)[C@H]1OS(=O)(=O)O [Example 18]	CXCL8 (Homo sapiens, UniProt P10145)	9

response.value for NCCOCCO[C@@H]1O[C@@H](C(=O)O)[C@@H](O[C@@H]2O[C@@H](C(=O)O)[C@@H](OS(=O)(=O)O)[C@H](O)[C@H]2O)[C@H](O)[C@H]1O [Example 5] (field: mean rank binding to CXCL8) = 62

----------
Measured mean rank binding to CXCL12 values are reported for all entries that follow.
- Tested Target: CXCL12 (Homo sapiens, UniProt P48061)
- Sequence (P48061 22-93, species assumed): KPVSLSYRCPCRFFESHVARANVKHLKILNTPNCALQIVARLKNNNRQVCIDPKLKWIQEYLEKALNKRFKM
- Assay Info: Chemokine glycan microarray binding assay
- Details: maximum RFU set as 100% binding, average across 2 glycan concentrations and 3 chemokine dilutions (n=6)
Field: numeric (%). Do not append units.

Compound	mean rank binding to CXCL12 (%)
CC(=O)NC1C(O)[C@H](O)C(COS(=O)(=O)O)O[C@@H]1O[C@@H]1C(C(=O)O)O[C@@H](O[C@@H]2C(COS(=O)(=O)O)O[C@H](O[C@@H]3C(C(=O)O)O[C@@H](OCCCN)C(O)C3O)C(NC(C)=O)C2O)C(O)C1O (some centres unmarked)	66

Now for the compound whose mean rank binding to CXCL12 we want.
GET /value?item= CC(=O)NC1C(O)[C@H](O)C(COS(=O)(=O)O)O[C@@H]1O[C@@H]1C(C(=O)O)O[C@@H](O[C@@H]2C(COS(=O)(=O)O)O[C@H](O[C@@H]3C(C(=O)O)O[C@@H](OCCCN)C(OS(=O)(=O)O)C3O)C(NC(C)=O)C2O)C(OS(=O)(=O)O)C1O (some centres unmarked) &field=mean rank binding to CXCL12 returns 69

----------
- Tested Target: CCL13 (Homo sapiens, UniProt Q99616)
- Sequence (Q99616 17-98, species assumed): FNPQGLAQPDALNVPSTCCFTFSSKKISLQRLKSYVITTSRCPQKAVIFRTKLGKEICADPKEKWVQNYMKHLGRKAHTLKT
- Assay Info: Chemokine glycan microarray binding assay
- Details: maximum RFU set as 100% binding, average across 2 glycan concentrations and 3 chemokine dilutions (n=6)
Quantity Measured: mean rank binding to CCL13 (%)

Example entries begin here.
Molecule	Quantity Measured	Unit Of Measure	Observed
NCCOCCO[C@@H]1O[C@@H](C(=O)O)[C@@H](O[C@@H]2O[C@@H](C(=O)O)[C@@H](O[C@@H]3O[C@@H](C(=O)O)[C@@H](O[C@@H]4O[C@@H](C(=O)O)[C@@H](OS(=O)(=O)O)[C@H](O)[C@H]4OS(=O)(=O)O)[C@H](O)[C@H]3OS(=O)(=O)O)[C@H](O)[C@H]2OS(=O)(=O)O)[C@H](O)[C@H]1OS(=O)(=O)O [Example 12]	mean rank binding to CCL13	%	70
CC(=O)NC1C(O)[C@H](O)C(COS(=O)(=O)O)O[C@@H]1O[C@@H]1C(C(=O)O)O[C@@H](O[C@@H]2C(COS(=O)(=O)O)O[C@H](O[C@@H]3C(C(=O)O)O[C@@H](OCCCN)C(OS(=O)(=O)O)C3O)C(NC(C)=O)C2O)C(OS(=O)(=O)O)C1O (stereo partly shown) [Example 20]	mean rank binding to CCL13	%	79

[a] CC(=O)NC1C(O)[C@H](O)C(COS(=O)(=O)O)O[C@@H]1O[C@@H]1C(C(=O)O)O[C@@H](O[C@@H]2C(COS(=O)(=O)O)O[C@H](O[C@@H]3C(C(=O)O)O[C@@H](OCCCN)C(O)C3O)C(NC(C)=O)C2O)C(O)C1O (stereo partly shown) [Example 24]
[b] CC(=O)NC1C(O)[C@H](O)C(CO)O[C@@H]1O[C@@H]1C(C(=O)O)O[C@@H](O[C@@H]2C(CO)O[C@H](O[C@@H]3C(C(=O)O)O[C@@H](OCCCN)C(O)C3O)C(NC(C)=O)C2O)C(O)C1O (stereo partly shown) [Example 16]
Data request: Lab notebook, comparison: a versus b , higher mean rank binding to CCL13 goes to which? # answer = label of selected item
Data returned: a
(a: 81%, b: 24%)

----------
- Tested Target: CXCL8 (Homo sapiens, UniProt P10145)
- Assay Info: Chemokine glycan microarray binding assay
- Details: maximum RFU set as 100% binding, average across 2 glycan concentrations and 3 chemokine dilutions (n=6)
Quantity Measured: mean rank binding to CXCL8 (%)

Please review the following examples before continuing.
Compound	Observed
NCCOCCO[C@@H]1O[C@@H](C(=O)O)[C@@H](O[C@@H]2O[C@@H](C(=O)O)[C@@H](O[C@@H]3O[C@@H](C(=O)O)[C@@H](O[C@@H]4O[C@@H](C(=O)O)[C@@H](OS(=O)(=O)O)[C@H](O)[C@H]4O)[C@H](O)[C@H]3O)[C@H](O)[C@H]2O)[C@H](O)[C@H]1O	95
NCCCO[C@@H]1OC(C(=O)O)[C@@H](O[C@H]2OC(CO)[C@@H](O[C@@H]3OC(C(=O)O)[C@@H](O[C@H]4OC(CO)[C@@H](O)C(O)C4N)C(O)C3O)C(O)C2N)C(O)C1O (stereo partly shown)	13

[A] NCCCO[C@@H]1OC(C(=O)O)[C@@H](O[C@H]2OC(COS(=O)(=O)O)[C@@H](O[C@@H]3OC(C(=O)O)[C@@H](O[C@H]4OC(COS(=O)(=O)O)[C@@H](O)[C@H](O)C4N)C(O)[C@@H]3O)[C@H](O)C2N)C(O)[C@@H]1O (stereo partly shown)
[B] NCCOCCO[C@@H]1OC(C(=O)O)[C@@H](O[C@@H]2OC(C(=O)O)[C@@H](O[C@@H]3OC(C(=O)O)[C@@H](O[C@@H]4OC(C(=O)O)[C@@H](O)C(O)C4O)C(O)C3O)C(O)C2O)C(O)C1O (stereo partly shown)
Data request: Which item exceeds the other in mean rank binding to CXCL8, A or B ? Answer format: the label of the selected item.
Data returned: B

----------
- Tested Target: CCL28 (Homo sapiens)
- Sequence (Q9NRJ3 20-127, species assumed): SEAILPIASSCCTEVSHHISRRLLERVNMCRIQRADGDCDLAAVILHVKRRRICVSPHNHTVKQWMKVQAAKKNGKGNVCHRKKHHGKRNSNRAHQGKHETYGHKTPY
- Assay Info: Chemokine glycan microarray binding assay
- Details: maximum RFU set as 100% binding, average across 2 glycan concentrations and 3 chemokine dilutions (n=6)
- Protocol: Microarray Studies: The compounds of the present invention were covalently immobilized on epoxy group collated glass slides. […] Bound antibodies were detected by incubating with biotinylated secondary detections (1 ng/μL) diluted in PBS, 200 μL/block at RT for 1 h. Slides were washed 4 times with PBST, then with PBS (without Tween-20) for 2 min and biotinylated antibodies were detected with Cy3-SA (1.2 μg/mL). […]
Quantity Measured: mean rank binding to CCL28 (%)

Molecule	Tested Target	mean rank binding to CCL28 / %
CC(=O)NC1C(O)[C@H](O)C(COS(=O)(=O)O)O[C@@H]1O[C@@H]1C(C(=O)O)O[C@@H](O[C@@H]2C(COS(=O)(=O)O)O[C@H](O[C@@H]3C(C(=O)O)O[C@@H](OCCCN)C(OS(=O)(=O)O)C3O)C(NC(C)=O)C2O)C(OS(=O)(=O)O)C1O (stereo partly shown)	CCL28 (Homo sapiens)	66
NCCOCCO[C@@H]1O[C@@H](C(=O)O)[C@@H](OS(=O)(=O)O)[C@H](O)[C@H]1OS(=O)(=O)O	CCL28 (Homo sapiens)	72
NCCCO[C@@H]1OC(C(=O)O)[C@@H](O[C@H]2OC(COS(=O)(=O)O)[C@@H](O[C@@H]3OC(C(=O)O)[C@@H](O[C@H]4OC(COS(=O)(=O)O)[C@@H](O)[C@H](O)C4N)C(O)[C@@H]3O)[C@H](O)C2N)C(O)[C@@H]1O (stereo partly shown)	CCL28 (Homo sapiens)	38
NCCOCCO[C@@H]1O[C@@H](C(=O)O)[C@@H](O[C@@H]2O[C@@H](C(=O)O)[C@@H](O[C@@H]3O[C@@H](C(=O)O)[C@@H](OS(=O)(=O)O)[C@H](O)[C@H]3O)[C@H](O)[C@H]2O)[C@H](O)[C@H]1O	CCL28 (Homo sapiens)	54
